- Test system: breast cancer cell line HS578T
- METHOD DESCRIPTION: In vitro cytotoxicity, MTS assay, breast cancer cells
- Type: cell-based, human
- ASSAY CONDITIONS: Homo sapiens, Hs-578T, 168 h, 7 days exposure, dose causing death to 50% of cells, read-out: Cell Survival ED 50 Breast
Measured EC50 values are reported for all entries that follow.
Please respond with the number in nM and leave the unit unwritten.

Example results:
input: Could you share which EC50 value was measured for CC[C@]1(O)C[C@@H]2CN(CCc3c([nH]c4ccccc34)[C@@](C(=O)OC)(c3cc4c(cc3OC)N(C)[C@H]3[C@@](O)(C(=O)OC)[C@H](OC(C)=O)[C@]5(CC)C=CCN6CC[C@]43[C@@H]65)C2)C1 [Vinblastine, vinblastine, reference compound] ?
output: 1200

input: Could you share which EC50 value was measured for Cc1ccc(N=C(Nc2ccc(C)cc2)N2CCOCCOCCN(C(=Nc3ccc(C)cc3)Nc3ccc(C)cc3)CCOCCOCC2)cc1 ?
output: 600

input: Could you share which EC50 value was measured for Cc1ccc(NC(=N)N(CCc2c[nH]c3ccccc23)c2ccc(C)cc2)cc1 ?
output: 4200

---
input: Could you share which EC50 value was measured for COc1cc([C@@H]2c3cc4c(cc3[C@@H](O[C@@H]3O[C@@H]5CO[C@@H](C)O[C@H]5[C@H](O)[C@H]3O)[C@H]3COC(=O)[C@H]23)OCO4)cc(OC)c1O [Etoposide, etoposide, reference compound] ?
output: 400

input: Could you share which EC50 value was measured for Cc1ccc(NC(=N)N(CCCCN)c2ccc(C)cc2)cc1 ?
output: 1700

input: Could you share which EC50 value was measured for Cc1ccc(NC(=N)N(CCCCN(C(=N)Nc2ccc(C)cc2)c2ccc(C)cc2)c2ccc(C)cc2)cc1 ?
output: 300

input: Could you share which EC50 value was measured for Cc1ccc(N(c2ccc(C)cc2)N2CCC(C#N)(c3ccccc3)CC2)cc1 ?
output: 4600

input: Could you share which EC50 value was measured for COc1cccc2c1C(=O)c1c(O)c3c(c(O)c1C2=O)C[C@@](O)(C(=O)CO)C[C@@H]3O[C@H]1C[C@H](N)[C@H](O)[C@H](C)O1 [Doxorubicin, doxorubicin, reference compound] ?
output: 2000

====

- Tested on: hormone-independent prostate cancer cell line DU145
- METHOD DESCRIPTION: In vitro cytotoxicity, MTS (CellTiter 96 Aqueous Proliferation Assay), prostate cancer cells
- Format: cell-based, human
- ASSAY CONDITIONS: separate experiment (FIG. 1), seven days, read-out: EC50 cytotoxic activity
VALUE TYPE: EC50 (µM)
Please respond with the number in µM and leave the unit unwritten.

input: Fill in the recorded EC50 for this molecule, with hormone-independent prostate cancer cell line DU145 as test system: Cc1ccc(N=C(Nc2ccc(C)cc2)N2CCN(C/C=C/c3ccccc3)CC2)cc1
output: 3.4

====

- Tested on: pancreas cancer cell line HS766T
- METHOD DESCRIPTION: In vitro cytotoxicity, MTS assay, pancreas cancer cells
- Format: cell-based, human
- ASSAY CONDITIONS: Homo sapiens, 168 h, 7 days exposure, dose causing death to 50% of cells, read-out: Cell Survival ED 50 Pancreas
Measured pEC50 values are reported for all entries that follow.
Remember, pEC50 is on a log scale: it is -log10 of the molar concentration.

input: Could you share which pEC50 value was measured for Cc1ccc(NC(=N)N(CCCCN)c2ccc(C)cc2)cc1 [Example 4] ?
output: 6.70

input: Could you share which pEC50 value was measured for COc1cc([C@@H]2c3cc4c(cc3[C@@H](O[C@@H]3O[C@@H]5CO[C@@H](C)O[C@H]5[C@H](O)[C@H]3O)[C@H]3COC(=O)[C@H]23)OCO4)cc(OC)c1O [Etoposide, etoposide, reference compound] ?
output: 5.70

input: Could you share which pEC50 value was measured for CC[C@]1(O)C[C@@H]2CN(CCc3c([nH]c4ccccc34)[C@@](C(=O)OC)(c3cc4c(cc3OC)N(C)[C@H]3[C@@](O)(C(=O)OC)[C@H](OC(C)=O)[C@]5(CC)C=CCN6CC[C@]43[C@@H]65)C2)C1 [Vinblastine, vinblastine, reference compound] ?
output: 6.70

input: Could you share which pEC50 value was measured for Cc1ccc(NC(=N)N(CCc2c[nH]c3ccccc23)c2ccc(C)cc2)cc1 [Example 9] ?
output: 6.30

Next, consider the following compound.
input: Could you share which pEC50 value was measured for COc1cccc2c1C(=O)c1c(O)c3c(c(O)c1C2=O)C[C@@](O)(C(=O)CO)C[C@@H]3O[C@H]1C[C@H](N)[C@H](O)[C@H](C)O1 [Doxorubicin, doxorubicin, reference compound] ?
output: 6.52

====

- Test system: normal human endothelial cells (AH-9)
- METHOD DESCRIPTION: In vitro cytotoxicity, MTS assay, normal endothelial cells
- Assay type: cell-based
- ASSAY CONDITIONS: AH-9 normal endothelial cells; separate experiment (FIG. 1); seven days; read-out: EC50 cytotoxic activity
VALUE TYPE: EC50 (µM)
Please respond with the number in µM and leave the unit unwritten.

input: Fill in the recorded EC50 for this molecule, with normal human endothelial cells (AH-9) as test system: Cc1ccc(N=C(Nc2ccc(C)cc2)N2CCN(C/C=C/c3ccccc3)CC2)cc1
output: 95
